# credit: patent US20250223342A1

biological target: T1, human serum albumin (human, UniProt P02768 25-609); assay: SPR (Biacore 3000), HSA on chip, Fc-ABDEG fusion, pH 5.5
T1 construct: also called HSA

{"binder": "11C03 CDR2-V7 fused at the C-terminus of Fc-ABDEG (Fc fusion, not shown: a dimerising Fc or GST; small tags and cut ends) QLQVVESGGGLVQAGGSLRLSCAASERTFVAYPMGWFRQAPEKEREFVAGISWFAAATTDYADSVEGRFTISRDNAKNTAYLQMNNLKPEDTAVYYCAISHQLPGGRPGRDMDSYSYWGHGTQVTVSS", "R0 pH 5.5, RU": 4.57}
{"binder": "11C03 CDR1-V3 fused at the C-terminus of Fc-ABDEG (Fc fusion, not shown: a dimerising Fc or GST; small tags and cut ends) QLQVVESGGGLVQAGGSLRLSCAASERTFVAYAMGWFRQAPEKEREFVAGISWFAGATTDYADSVEGRFTISRDNAKNTAYLQMNNLKPEDTAVYYCAISHQLPGGRPGRDMDSYSYWGHGTQVTVSS", "R0 pH 5.5, RU": 109}
{"binder": "11C03 CDR2-V4 fused at the C-terminus of Fc-ABDEG (Fc fusion, not shown: a dimerising Fc or GST; small tags and cut ends) QLQVVESGGGLVQAGGSLRLSCAASERTFVAYPMGWFRQAPEKEREFVAGISAFAGATTDYADSVEGRFTISRDNAKNTAYLQMNNLKPEDTAVYYCAISHQLPGGRPGRDMDSYSYWGHGTQVTVSS", "R0 pH 5.5, RU": 12.3}
{"binder": "11C03 CDR2-V3 fused at the C-terminus of Fc-ABDEG (Fc fusion, not shown: a dimerising Fc or GST; small tags and cut ends) QLQVVESGGGLVQAGGSLRLSCAASERTFVAYPMGWFRQAPEKEREFVAGIAWFAGATTDYADSVEGRFTISRDNAKNTAYLQMNNLKPEDTAVYYCAISHQLPGGRPGRDMDSYSYWGHGTQVTVSS", "R0 pH 5.5, RU": 68.5}
